// provenance: the supplement of paper PMC6897291

Test system: U-2932
Assay: growth inhibition by drug alone (1 - RLU/untreated control) (fraction); higher = stronger inhibition
Details: 1000 nM; time (day): 4; 177Lu-lilotomab satetraxetan 0 ug/ml
Value Type: growth inhibition by drug alone
One number for each entry.

CN1CCC(CNc2ccc3ncc(-c4cccc(OC(F)(F)F)c4)n3n2)CC1 [SGI-1776 free base]
0.115
CCC1=C[C@@H]2CN(C1)Cc1c([nH]c3ccccc13)[C@@](C(=O)OC)(c1cc3c(cc1OC)N(C)[C@H]1[C@@](O)(C(=O)OC)[C@H](OC(C)=O)[C@]4(CC)C=CCN5CC[C@]31[C@@H]54)C2
0.976
Fc1cc(-c2cccc3ncc(-c4cnn(C5CCNCC5)c4)nc23)cc(F)c1CN1CCOCC1
0.07

Would you kindly look at the next entry?
The reported value for C[C@]12CC[C@H](O)CC1=CC[C@@H]1[C@@H]2CC[C@]2(C)C(c3cccnc3)=CC[C@@H]12 in terms of growth inhibition by drug alone is -0.0224
